Test system: PEPCK-c
Assay: PEPCK-c mRNA expression in HepG2 cells
Type: cell-based, human
Settings: Experiment 2, 1 nM insulin treated; HepG2; 100 nM oligomeric compound
In the oligonucleotide strings, read from the 5' end, every base follows the letter of its sugar. An asterisk marks phosphorothioate; unmarked linkages are phosphodiester. Other units and linkages are bracketed, terminal groups are in braces. A string of capitals states the bases alone. e = 2'-O-(2-methoxyethyl) (MOE); [5mC] = 5-methylcytosine; d = 2'-deoxy (DNA)
Observable: PEPCK-c (% UTC)
Give the figure together with its unit, number first.

Quick batch: PEPCK-c (% UTC) for everything below.
1. 327954 (antisense eA*e[5mC]*eA*eA*eA*eG*eT*eT*e[5mC]*eT*eG*eT*eG*eA*eT*eG*e[5mC]*eA*e[5mC]*eT*eG*eA) [compound 327954]
2. 340927 (antisense eT*eG*eA*eG*e[5mC]*dT*dA*d[5mC]*dA*dG*dT*dG*d[5mC]*dT*dT*e[5mC]*eA*eT*e[5mC]*eT*e[5mC]*eA) [compound 340927]
3. 327933 (antisense eA*eA*eG*eG*eG*eA*eT*eT*e[5mC]*e[5mC]*eT*eG*eG*eG*eA*eA*eA*eA*e[5mC]*eT*eG*eG*eA*e[5mC]) [compound 327933]

Found:
1. 102 % UTC
2. 103 % UTC
3. 115 % UTC

Quick batch: PEPCK-c (% UTC) for everything below.
1. 327922 (antisense eT*e[5mC]*eA*eG*eT*eT*eT*eT*eG*e[5mC]*eA*eT*eG*eG*eA*eT*eT*eT*eG*e[5mC]*eA*e[5mC]*eA) [compound 327922]
2. 327925 (antisense eT*eA*eG*e[5mC]*eT*eG*eG*eT*eT*eG*eA*eA*eG*eG*eG*eG*eA*e[5mC]*e[5mC]*eA*eA) [compound 327925]
3. 327876 (antisense eA*eA*e[5mC]*eA*e[5mC]*eT*eG*eA*eT*eT*eT*e[5mC]*eA*eA*eA*eT*eG*eG*eT*eG*e[5mC]*eT*eA) [compound 327876]
4. 327880 (antisense eA*e[5mC]*eA*eA*eA*eT*eT*e[5mC]*eG*eG*eT*eT*e[5mC]*eT*eA*e[5mC]*eA*eG*eG*eG*eT*eA) [compound 327880]
5. 327889 (antisense eG*eT*eG*eG*eT*eA*eA*eT*e[5mC]*e[5mC]*e[5mC]*eT*eG*eG*e[5mC]*eA*eA*eT*eG*eT*eG*eA*eT) [compound 327889]

Found:
76 % UTC
182 % UTC
176 % UTC
125 % UTC
202 % UTC
